- System: biotinyl-Trp-oxazolone
- experimentalProtocol: self-aminoacylation, catalytic enhancement (BWO) (fold over background); higher = more active; k-Seq, kA / k0A0; sequences stand for … in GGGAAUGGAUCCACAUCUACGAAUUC…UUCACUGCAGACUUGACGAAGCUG
Variants at the floor of the assay were thinned out.
// label = True if self-aminoacylation is not less than 2, otherwise False

>>> df
                             recordsequence  assignedclass
0  AUUCCCCUGGUCUUCGAGUGA [Fam2.1 aminoacylation ribozyme variant]           True
1  AAGUUUGCUAGUAGUCCCAAG [Fam3.1 aminoacylation ribozyme variant]          False
2  AUUACUCUGGUCAUCGAGUGA [Fam2.1 aminoacylation ribozyme variant]           True
3  AUUACCCUUGUCAUCGAGUGG [Fam2.1 aminoacylation ribozyme variant]          False
4  CUGCUUCAAACAAUCGCUCUG [Fam1A.1 aminoacylation ribozyme variant]           True
5  AUUCACCGGGGUCAUCGGGUG [Fam2.2 aminoacylation ribozyme variant]           True

Problem: State whether the measured self-aminoacylation reaches 2, counting equality as reaching it, for AAAUUUGCGAAUAGUCGCAAG [Fam3.1 aminoacylation ribozyme variant]
Result: False

Problem: State whether the measured self-aminoacylation reaches 2, counting equality as reaching it, for AUUCACCUACGGCAUCGGGUG [Fam2.2 aminoacylation ribozyme variant]
Result: True

Problem: State whether the measured self-aminoacylation reaches 2, counting equality as reaching it, for AUUACCCUCGCCAUCGAGUGA [Fam2.1 aminoacylation ribozyme variant]
Result: True

Problem: State whether the measured self-aminoacylation reaches 2, counting equality as reaching it, for CCACACUUGAAGCAUUCGGUC [Fam1B.1 aminoacylation ribozyme variant]
Result: True

Problem: State whether the measured self-aminoacylation reaches 2, counting equality as reaching it, for CCACACUGCAAGCAAUCGGUG [Fam1B.1 aminoacylation ribozyme variant]
Result: True

Problem: State whether the measured self-aminoacylation reaches 2, counting equality as reaching it, for CCACGCUUCAAGCAGUCGGUC [Fam1B.1 aminoacylation ribozyme variant]
Result: False

Problem: State whether the measured self-aminoacylation reaches 2, counting equality as reaching it, for AAGUUGGCUAAUAGUCGCAAU [Fam3.1 aminoacylation ribozyme variant]
Result: True

Problem: State whether the measured self-aminoacylation reaches 2, counting equality as reaching it, for UCGCACUUCAAGCAAUCGGUC [Fam1B.1 aminoacylation ribozyme variant]
Result: True

// data source = the supplement of paper PMC9233669
